Cited source for all entries: patent US8841413B2

Property: half-life at 2 μM; scope: individual molecules
assay: Stability against liver microsomes; format: in vitro ADME, human; conditions: human, human liver microsomes, pH 7.8, 37° C., read-out: half-life (t1/2) with liver microsomes
Give the value in h but do not write h after it.

- molecule: "CCc1cc(OC)ccc1-c1ccc(CC(NC(=O)[C@H](CC(=O)O)NC(=O)[C@H](CO)NC(=O)[C@@H](NC(=O)C(C)(Cc2ccccc2F)NC(=O)[C@@H](NC(=O)CNC(=O)[C@H](CCC(N)=O)NC(=O)[C@H](CO)NC(=O)[C@@H](N)Cc2c[nH]cn2)[C@@H](C)O)[C@@H](C)O)C(=O)NC(Cc2ccc(-c3ccccc3C(F)(F)F)cc2)C(N)=O)cc1 (single isomer, unassigned) [compound 24]"
  half-life at 2 μM [h]: 1
- molecule: "CCc1cc(OC)ccc1-c1ccc(CC(NC(=O)[C@H](CC(=O)O)NC(=O)[C@H](CO)NC(=O)[C@@H](NC(=O)C(C)(Cc2ccccc2F)NC(=O)[C@@H](NC(=O)CNC(=O)[C@H](CCC(N)=O)NC(=O)[C@H](CO)NC(=O)[C@@H](N)Cc2c[nH]cn2)[C@@H](C)O)[C@@H](C)O)C(=O)NC(Cc2ccc(-c3ccccc3C)cc2)C(N)=O)cc1 (single isomer, unassigned) [compound 21]"
  half-life at 2 μM [h]: 1
- molecule: "CCc1cc(OC)ccc1-c1ccc(CC(NC(=O)[C@H](CC(=O)O)NC(=O)[C@H](CO)NC(=O)[C@@H](NC(=O)[C@H](Cc2ccccc2)NC(=O)[C@@H](NC(=O)CNC(=O)[C@H](CCC(N)=O)NC(=O)[C@H](CO)NC(=O)[C@@H](N)Cc2c[nH]cn2)[C@@H](C)O)[C@@H](C)O)C(=O)NC(Cc2ccc(-c3ccccc3F)cc2)C(N)=O)cc1 (single isomer, unassigned) [compound 7]"
  half-life at 2 μM [h]: 0.5
- molecule: "CCc1cc(OC)ccc1-c1ccc(CC(NC(=O)[C@H](CC(=O)O)NC(=O)[C@H](CO)NC(=O)[C@@H](NC(=O)C(C)(Cc2ccccc2F)NC(=O)[C@@H](NC(=O)CNC(=O)[C@H](CCC(N)=O)NC(=O)[C@H](CO)NC(=O)[C@@H](N)Cc2c[nH]cn2)[C@@H](C)O)[C@@H](C)O)C(=O)NC(Cc2ccc(-c3ccccc3C)nc2)C(N)=O)cc1 (single isomer, unassigned) [compound 22]"
  half-life at 2 μM [h]: 1

Now take the following molecule into account.
If you can, please state the reported half-life at 2 μM value of CCc1cc(OC)ccc1-c1ccc(CC(NC(=O)[C@H](CC(=O)O)NC(=O)[C@H](CO)NC(=O)[C@@H](NC(=O)C(C)(Cc2ccccc2F)NC(=O)[C@@H](NC(=O)CNC(=O)[C@H](CCC(N)=O)NC(=O)[C@H](C)NC(=O)[C@@H](N)Cc2c[nH]cn2)[C@@H](C)O)[C@@H](C)O)C(=O)NC(Cc2ccc(-c3ccccc3C)nc2)C(N)=O)cc1 (single isomer, unassigned) [compound 26] .
1
